- SYSTEM TESTED: HA of ca A/Netherlands/219/03 (H7N7) (influenza A virus)
- EXPERIMENT DESCRIPTION: cell-based or functional assay
Entries and their measured Neutralization IC50, H7-NLD03 follow.

{"BINDER": "Antibody 12 (antibody, V domains shown) VH: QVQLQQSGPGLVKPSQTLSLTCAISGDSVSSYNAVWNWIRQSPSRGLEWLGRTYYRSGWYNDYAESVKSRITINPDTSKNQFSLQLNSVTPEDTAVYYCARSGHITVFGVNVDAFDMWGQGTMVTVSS VL: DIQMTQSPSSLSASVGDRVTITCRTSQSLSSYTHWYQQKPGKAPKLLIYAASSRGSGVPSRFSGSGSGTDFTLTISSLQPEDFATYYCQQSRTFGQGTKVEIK", "Neutralization IC50, H7-NLD03, µg/mL": 0.83}
{"BINDER": "Antibody 11 (antibody, V domains shown) VH: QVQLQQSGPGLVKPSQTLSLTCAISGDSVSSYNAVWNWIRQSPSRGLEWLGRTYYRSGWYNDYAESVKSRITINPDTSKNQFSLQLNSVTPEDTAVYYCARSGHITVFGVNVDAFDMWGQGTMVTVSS VL: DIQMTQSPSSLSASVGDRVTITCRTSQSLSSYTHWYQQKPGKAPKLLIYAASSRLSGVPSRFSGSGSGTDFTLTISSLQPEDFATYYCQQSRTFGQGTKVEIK", "Neutralization IC50, H7-NLD03, µg/mL": 0.94}
{"BINDER": "Antibody 15 (antibody, V domains shown) VH: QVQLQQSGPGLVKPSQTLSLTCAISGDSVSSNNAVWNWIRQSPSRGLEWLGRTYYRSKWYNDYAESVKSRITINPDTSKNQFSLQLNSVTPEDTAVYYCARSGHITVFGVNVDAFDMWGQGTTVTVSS VL: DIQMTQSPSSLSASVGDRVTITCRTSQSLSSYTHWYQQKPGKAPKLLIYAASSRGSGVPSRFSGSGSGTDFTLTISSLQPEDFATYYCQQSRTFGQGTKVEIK", "Neutralization IC50, H7-NLD03, µg/mL": 1.3}
